From: patent US20220249633A1

target: HLA-A*24 (human); test: UV-exchange ELISA, exchange yield grade
recorded metric: peptide exchange yield

Entry QYLTAAALHNL [… (SEQ ID NO: 233)] has what peptide exchange yield?
50 to 75%

Consider the binder shown here: YYTQYSQTI [… (SEQ ID NO: 96)] What is its recorded peptide exchange yield?
> 75%

Please report the recorded peptide exchange yield for VYVQILQKL [… (SEQ ID NO: 111)] .
50 to 75%

# get_value(readout='peptide exchange yield', item= RYVEGIVSL [… (SEQ ID NO: 202)] )
50 to 75%

Value lookup for peptide exchange yield; key = NYENKQYLF [… (SEQ ID NO: 305)]
> 75%
